Study System: PDGFRα (Homo sapiens, UniProt P16234)
Construct: purchased Millipore 14-467 (lot 26321_ACTI)
Sequence (P16234 24-1089): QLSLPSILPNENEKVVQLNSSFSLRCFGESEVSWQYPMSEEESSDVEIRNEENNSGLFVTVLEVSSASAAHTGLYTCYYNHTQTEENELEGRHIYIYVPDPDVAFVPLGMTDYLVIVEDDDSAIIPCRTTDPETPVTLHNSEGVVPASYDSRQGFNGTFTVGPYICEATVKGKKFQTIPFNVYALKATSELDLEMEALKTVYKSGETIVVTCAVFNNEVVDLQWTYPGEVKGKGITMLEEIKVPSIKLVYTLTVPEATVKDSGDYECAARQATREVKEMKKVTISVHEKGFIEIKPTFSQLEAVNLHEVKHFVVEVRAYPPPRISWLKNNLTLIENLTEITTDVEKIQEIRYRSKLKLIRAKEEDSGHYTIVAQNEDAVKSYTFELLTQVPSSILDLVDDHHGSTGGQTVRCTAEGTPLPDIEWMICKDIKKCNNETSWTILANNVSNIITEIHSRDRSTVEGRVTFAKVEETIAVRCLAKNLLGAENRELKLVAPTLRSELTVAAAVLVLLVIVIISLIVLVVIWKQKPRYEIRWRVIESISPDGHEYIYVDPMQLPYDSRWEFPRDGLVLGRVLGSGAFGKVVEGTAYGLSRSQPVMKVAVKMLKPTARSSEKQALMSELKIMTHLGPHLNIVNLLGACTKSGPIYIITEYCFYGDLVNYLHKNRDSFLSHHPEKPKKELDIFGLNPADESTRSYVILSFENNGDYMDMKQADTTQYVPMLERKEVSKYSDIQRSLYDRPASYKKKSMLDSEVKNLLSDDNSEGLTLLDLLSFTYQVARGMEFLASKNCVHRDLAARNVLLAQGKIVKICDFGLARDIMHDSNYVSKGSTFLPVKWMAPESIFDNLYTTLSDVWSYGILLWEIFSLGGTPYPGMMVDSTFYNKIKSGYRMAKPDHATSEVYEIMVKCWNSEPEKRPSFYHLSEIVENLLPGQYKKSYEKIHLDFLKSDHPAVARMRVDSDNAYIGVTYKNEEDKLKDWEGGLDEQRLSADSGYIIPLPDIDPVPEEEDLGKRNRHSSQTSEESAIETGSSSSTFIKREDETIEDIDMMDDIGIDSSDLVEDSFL
Procedure Text: HTRF biochemical assay, PDGFRα
Measurement Parameters: Table 4, read-out: PDFGRα Biochemical IC50 avg
Measurement Name: IC50

Which value of IC50 has been reported for `Cc1ccc(-c2noc(C[C@H](C)O)n2)cc1NC(=O)c1cnn2ccccc12` in the records?
5 to 30 µM

Value lookup for IC50; key = `Cc1ccc(-c2noc(C[C@@H](C)O)n2)cc1NC(=O)c1cnn2ccccc12`
5 to 30 µM

What value of IC50 has been reported for the following molecule? `COCc1ccn2c(C(=O)Nc3cc(-c4noc(C(F)(F)F)n4)ccc3C)cnc2c1`
0.5 to 5 µM

Give its IC50 value. Item: `Cc1ccc(-c2noc([C@H]3C[C@@H]3F)n2)cc1NC(=O)c1cnc2ccc(F)cn12`
0.5 to 5 µM

Any idea what its IC50 is? The molecule is `Cc1ccc(-c2noc([C@H]3C[C@@H]3F)n2)cc1NC(=O)c1cnn2ccccc12`
0.5 to 5 µM

What value of IC50 has been recorded for this entry: Cc1ccc(-c2noc(C(O)C3CC3)n2)cc1NC(=O)c1cnc2ccccn12 (racemic)
0.5 to 5 µM

# query: IC50 of entry `COc1ccn2c(C(=O)Nc3cc(-c4noc(C[C@@H](C)O)n4)ccc3C)cnc2c1`
0.5 to 5 µM

Consider the molecule `Cc1ccc2ncc(C(=O)Nc3cc(-c4noc([C@H]5C[C@@H]5F)n4)ccc3C)n2c1` and give its measured IC50.
0.05 to 0.5 µM

----------
What IC50 was measured for each of the following?
Study System: PDGFRα (Homo sapiens, UniProt P16234)
Construct: purchased Millipore 14-467 (lot 26321_ACTI)
Procedure Text: Caliper biochemical assay, PDGFRα
Measurement Parameters: Table 6

Please report the recorded IC50 for `Cc1ccc(-c2noc([C@H](C)NS(C)(=O)=O)n2)cc1NC(=O)c1cnc2ccccn12` .
5000 to 30000 nM

I have this compound here, `Cc1ccc(-c2noc(CCO)n2)cc1NC(=O)c1cnc2ccccn12` , and I need its recorded IC50.
5000 to 30000 nM

I'd like to know its IC50. The compound in question is `Cc1ccc(-c2noc([C@H]3CCN3S(=O)(=O)C3CCOCC3)n2)cc1NC(=O)c1cnc2ccccn12`
50 to 500 nM

Look at this compound and give its reported IC50. `Cc1ccc(-c2noc([C@H](C)O)n2)cc1NC(=O)c1cnc2ccccn12`
500 to 5000 nM

Sample `Cc1ccc(-c2noc(C34COC(C)(C3)C4)n2)cc1NC(=O)c1cnc2ccccn12` — what was its IC50?
500 to 5000 nM

Fill in the blank: the reported IC50 of `Cc1nc(-c2ccc(C)c(NC(=O)c3cnc4ccc(NCCO)cn34)c2)no1` is ____.
50 to 500 nM

Which IC50 value is on record for `Cc1ccc(-c2noc([C@@H]3CCN3S(=O)(=O)c3ccccc3)n2)cc1NC(=O)c1cnc2ccccn12` ?
500 to 5000 nM

GET /values?readout=IC50&item= `Cc1ccc(-c2noc(C3CC4(CCC4)C3)n2)cc1NC(=O)c1cnc2ccccn12`
≤ 50 nM

Request the reported IC50 associated with `Cc1ccc(-c2noc(CO)n2)cc1NC(=O)c1cnc2ccccn12`
50 to 500 nM

Recorded IC50 for COC1(C(F)F)CC(c2nc(-c3ccc(C)c(NC(=O)c4cnc5ccccn45)c3)no2)C1 (stereo not shown) , please?
50 to 500 nM

Please look up its IC50: COC(=O)CS(=O)(=O)N1CCC1c1nc(-c2ccc(C)c(NC(=O)c3cnc4ccccn34)c2)no1 (stereo not shown)
500 to 5000 nM

Would you mind telling me what IC50 value was observed for Cc1ccc(-c2noc(C3CC(OCCF)C3)n2)cc1NC(=O)c1cnc2ccccn12 (stereo not shown) ?
500 to 5000 nM

I have this compound here, `COCc1ccn2c(C(=O)Nc3cc(-c4noc(C5CN(C(=O)OC)C5)n4)ccc3C)cnc2c1` , and I need its recorded IC50.
5000 to 30000 nM

Return reported IC50; argument: `COC(=O)N1CC(c2nc(-c3ccc(C)c(NC(=O)c4cnc5cc(OCCO)ccn45)c3)no2)C1`
50 to 500 nM

Please give the measured IC50 for this compound: Cc1ccc(-c2noc(C3CCC(F)C3)n2)cc1NC(=O)c1cnc2ccccn12 (racemic) [Compound I-318]
50 to 500 nM

Looking for the measured IC50 of `Cc1ccc(-c2noc(C3CC4(C3)CC(F)(F)C4)n2)cc1NC(=O)c1cnc2ccccn12` , can you help?
50 to 500 nM

----------
Procedure Text: Three time point assay for plasma, brain and testes distribution after oral dosing
Format: in vivo, rat
Measurement Parameters: male, SD, brain, 10 mg/kg; rat, oral dosing, time point 2 h; read-out: Kp brain/plasma
Measurement Name: Kp at 2 h
The response must contain the number and no unit.

Please report the recorded Kp at 2 h for Cc1ccc(-c2noc([C@H]3C[C@@H]3F)n2)cc1NC(=O)c1cnc2cc(COCC(C)(C)O)ccn12 [Compound I-71] .
0.05

----------
System: Caco-2 cells
Procedure Text: Caco-2 permeability assay
Assay type: in vitro ADME
Measurement Parameters: Caco-2
Exercise: for every item that follows, state its recorded Caco-2: Efflux Ratio.
// keep it numeric: no unit symbol after the value

Lab request: please report Caco-2: Efflux Ratio under test system Caco-2 cells for Cc1ccc(-c2noc(C3(O)CC(F)(F)C3)n2)cc1NC(=O)c1cnc2ccccn12 [Compound I-380]
3.45

# value lookup — system Caco-2 cells, readout Caco-2: Efflux Ratio, item COC(=O)N1CC(c2nc(-c3ccc(C)c(NC(=O)c4cnn5ccc(Br)cc45)c3)no2)C1 [Compound I-280]
0.86

Return Caco-2: Efflux Ratio measured with Caco-2 cells given this compound: Cc1ccc(-c2noc(C(C)NS(C)(=O)=O)n2)cc1NC(=O)c1cnc2ccccn12 (single isomer, unassigned) [Compound I-237]
57.6

Quick check: Caco-2: Efflux Ratio on Caco-2 cells, item Cc1ccc(-c2noc(C3CN(C(=O)CO)C3)n2)cc1NC(=O)c1cnc2ccccn12 [Compound I-287] ?
135

Test system Caco-2 cells; read-out Caco-2: Efflux Ratio; what value for Cc1ccc(-c2noc([C@H]3C[C@@H]3F)n2)cc1NC(=O)c1cnc2ccc(C#N)cn12 [Compound I-384] ?
0.90

// map Cc1ccc(-c2noc([C@H]3C[C@@H]3F)n2)cc1NC(=O)c1cnc2cc(OC(C)C)ccn12 [Compound I-88] to recorded Caco-2: Efflux Ratio (system: Caco-2 cells)
0.79

I'm curious: which Caco-2: Efflux Ratio was measured for COC(=O)N1CC(c2nc(-c3ccc(C(F)F)c(NC(=O)c4cnc5ccccn45)c3)no2)C1 [Compound I-225] tested on Caco-2 cells?
1.37

----------
System: Caco-2 cells
Procedure Text: Caco-2 permeability assay
Format: in vitro ADME
Measurement Parameters: Caco-2, apical to basolateral
Measurement Name: Caco-2: Papp A-B

Any idea what Caco-2: Papp A-B came out for Cc1ccc(-c2noc(C3CCC3F)n2)cc1NC(=O)c1cnc2ccccn12 (racemic) [Compound I-376] on Caco-2 cells?
19.5 10^−6 cm/s

// map Cc1ccc(-c2noc(C(C)O)n2)cc1NC(=O)c1cnc2ccccn12 (racemic) [Compound I-364] to recorded Caco-2: Papp A-B (system: Caco-2 cells)
8.39 10^−6 cm/s

Lookup: Caco-2: Papp A-B / Caco-2 cells / Cc1ccc(-c2noc(C3CN(C(=O)CO)C3)n2)cc1NC(=O)c1cnc2ccccn12 [Compound I-287]
0.13 10^−6 cm/s

What measured Caco-2: Papp A-B is associated with Cc1ccc(-c2noc(C3CCN3)n2)cc1NC(=O)c1cnc2ccccn12 (racemic) [Compound I-394] on Caco-2 cells?
6.31 10^−6 cm/s

----------
Procedure Text: Three time point assay for plasma, brain and testes distribution after oral dosing
Format: in vivo, rat
Measurement Parameters: male, SD, plasma, 10 mg/kg; rat, oral dosing, time point 7 h; read-out: Plasma concentration
Protocol: Exemplary compounds were tested for distribution in plasma, brain and testes tissue following oral dosing of the compounds in rats. Procedures and results are described below. […] For PO dosing, the dose formulation was administered via oral gavage following facility SOPs. The dose volume was determined by the animals' body weight collected on the morning of dosing day. […]
Measurement Name: concentration at 7 h (ng/mL)
Write the value in ng/mL as a bare number.

Please give the measured concentration at 7 h for this compound: `Cc1ccc(-c2noc([C@H]3C[C@@H]3F)n2)cc1NC(=O)c1cnc2cc(COCC(C)(C)O)ccn12`
4110

----------
Study System: CSF-1R (Homo sapiens, UniProt P07333)
Construct: purchased Invitrogen PV3249 (lot 662393N)
Sequence (P07333 20-972): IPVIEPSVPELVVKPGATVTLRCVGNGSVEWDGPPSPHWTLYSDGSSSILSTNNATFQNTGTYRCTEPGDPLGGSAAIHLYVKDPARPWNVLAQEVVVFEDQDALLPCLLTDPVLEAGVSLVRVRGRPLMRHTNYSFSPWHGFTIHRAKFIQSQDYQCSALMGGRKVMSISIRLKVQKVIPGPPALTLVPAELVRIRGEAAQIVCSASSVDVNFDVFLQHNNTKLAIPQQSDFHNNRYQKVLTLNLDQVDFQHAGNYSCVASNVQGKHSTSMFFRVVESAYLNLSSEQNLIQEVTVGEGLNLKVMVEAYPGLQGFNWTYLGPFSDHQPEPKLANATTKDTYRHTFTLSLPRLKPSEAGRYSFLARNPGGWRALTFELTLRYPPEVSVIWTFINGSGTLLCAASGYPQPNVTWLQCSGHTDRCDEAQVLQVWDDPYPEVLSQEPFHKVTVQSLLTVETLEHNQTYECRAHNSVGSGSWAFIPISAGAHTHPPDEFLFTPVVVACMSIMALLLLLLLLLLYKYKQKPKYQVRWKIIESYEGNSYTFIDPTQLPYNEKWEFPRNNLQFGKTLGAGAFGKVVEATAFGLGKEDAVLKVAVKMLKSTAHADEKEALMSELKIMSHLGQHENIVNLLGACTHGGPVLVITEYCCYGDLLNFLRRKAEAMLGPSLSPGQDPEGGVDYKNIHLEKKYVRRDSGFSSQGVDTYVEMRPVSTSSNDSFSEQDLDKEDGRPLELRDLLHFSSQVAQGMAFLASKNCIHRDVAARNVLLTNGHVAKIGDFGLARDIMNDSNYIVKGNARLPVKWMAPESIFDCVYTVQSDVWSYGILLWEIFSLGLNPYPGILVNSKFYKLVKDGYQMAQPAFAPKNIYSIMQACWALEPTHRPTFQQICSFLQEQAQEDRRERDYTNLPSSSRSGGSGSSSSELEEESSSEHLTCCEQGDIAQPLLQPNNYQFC
Procedure Text: Caliper biochemical assay, CSF-1R
Measurement Parameters: Table 6
Measurement Name: IC50

Reported IC50 for Cc1ccc(-c2noc(CC3CC(F)(F)C3)n2)cc1NC(=O)c1cnc2ccccn12 [Compound I-124] : what is it?
≤ 50 nM

What does the data say about its IC50? Entry: COCc1ccn2c(C(=O)Nc3cc(-c4noc(C5CN(C(=O)OC)C5)n4)ccc3C)cnc2c1 [Compound I-140]
50 to 500 nM

Quick one: IC50 of Cc1ccc(-c2noc(CC(C)O)n2)cc1NC(=O)c1cnc2ccccn12 (racemic) [Compound I-363] ?
50 to 500 nM

# lookup: IC50 of Cc1ccc(-c2noc(C34COC(C)(C3)C4)n2)cc1NC(=O)c1cnc2ccccn12 [Compound I-344]
≤ 50 nM

Which measured IC50 value corresponds to Cc1ccc(-c2noc(C34CC(F)(C3)C4)n2)cc1NC(=O)c1cnc2ccccn12 [Compound I-392] ?
≤ 50 nM

Find the recorded IC50 belonging to COC(=O)N1CC(c2nc(-c3ccc(Cl)c(NC(=O)c4cnc5ccccn45)c3)no2)C1 [Compound I-339] and report it.
≤ 50 nM

Record request: IC50 value, item Cc1ccc(-c2noc(CC3CCCOC3)n2)cc1NC(=O)c1cnc2ccccn12 (racemic) [Compound I-362]
50 to 500 nM

# IC50 lookup, item Cc1nc(-c2ccc(C)c(NC(=O)c3cnn4ccccc34)c2)no1 [Compound I-428]
500 to 5000 nM

Entry source: patent US20240254119A1
